The origin of these recorded values is ChEMBL document CHEMBL3244039.

Test system: Human alphaherpesvirus 2
Assay: Antiviral activity against Herpes simplex virus 2 Curtis assessed as inhibition of virus-induced cytopathic effect at 37 degC after 72 hrs by two-fold dilution method
Assay type: functional
Test Parameters: Human alphaherpesvirus 2, Curtis
Form field: MIC (one value per entry).
Kindly answer with a numeric value in µg/mL, unit omitted.

Example results:
{"columns": ["Structure Smiles String", "MIC (µg/mL)"],
 "data": [
  ["Nc1ncnc2c1ncn2[C@@H]1O[C@H](CO)[C@@H](O)[C@@H]1O", 12],
  ["O=c1[nH]c(=O)n([C@H]2C[C@H](O)[C@@H](CO)O2)cc1I", 6]
]}

As a next step, examine the compound that follows.
Query: Which measured MIC value corresponds to CCC(=O)C(CCCCCCOc1ccc(OC)cc1Cl)C(=O)CC ?
Response: 6
